Data origin: paper PMC3025325

- System: MRC5 cells
- test-details: Resazurin cell viability counter-screen, EC50 determinations against mammalian cells
- Type: cell-based, human
- applied-conditions: Homo sapiens, MRC5, 72 h; 3 days incubation; mean of 4 determinations weighted to standard error; read-out: EC50 vs. MRC5
Structures can show the parent of a compound that is named as a salt.
measured-endpoint: EC50
Write the numeric value and follow it with the unit.

Solved entries (count: 2):
• Cc1c2ccncc2c(C)c2c1[nH]c1ccccc12 = 1700 nM
• CC[C@H]1CN2CCc3cc(OC)c(OC)cc3[C@@H]2C[C@@H]1C[C@H]1NCCc2cc(OC)c(OC)cc21 [Emetine dihydrochloride hydrate] = 30 nM

// moving on: another record for EC50
Req: Tell me EC50 reported for COc1ccc2c(c[n+](C)c3c4cc5c(cc4ccc23)OCO5)c1OC [Chelerythrine chloride]
Resp: 2500 nM

###

# pEC50 per record follows
- Tested on: bloodstream forms of Trypanosoma brucei
- test-details: Resazurin cell viability assay, EC50 determinations against T. brucei
- Type: cell-based, T. b. brucei (strain 427)
- applied-conditions: Trypanosoma brucei, 72 h, read-out: EC50 vs. T. brucei
The quantity pEC50 is defined as the negative base-10 logarithm of the molar concentration.

Solved entries (count: 5):
- CC(=O)O[C@H]1C(=O)[C@@]2(C)[C@H]([C@H](OC(=O)c3ccccc3)[C@]3(O)C[C@H](OC(=O)[C@H](O)[C@@H](NC(=O)c4ccccc4)c4ccccc4)C(C)=C1C3(C)C)[C@]1(OC(C)=O)CO[C@@H]1C[C@@H]2O: 8.48
- O=C1c2c(O)ccc(O)c2C(=O)c2c(NCCNCCO)ccc(NCCNCCO)c21: 8.62
- O=C(/C=C/c1ccc(O)c(O)c1)OCCc1ccccc1: 5.79
- C=CCc1ccccc1OCC(O)CNC1(C)CCC(C(C)(C)NC(=O)CBr)CC1 (stereo not shown): 5.90
- CCCn1c(=O)c2[nH]c(C3CCCC3)nc2n(CCC)c1=O: 6.28

Req: Tell me pEC50 reported for Cc1cc(N)c2ccccc2[n+]1CCCCCCCCCC[n+]1c(C)cc(N)c2ccccc21 [Dequalinium dichloride]
Resp: 7.37

###

- Test system: bloodstream forms of Trypanosoma brucei
- test-details: Resazurin cell viability assay, EC50 determinations against T. brucei
- Assay type: cell-based, T. b. brucei (strain 427)
- applied-conditions: Trypanosoma brucei, 72 h, read-out: EC50 vs. T. brucei
// NB: equality with 400 nM counts as 0; only EC50 strictly below is 1

Req: Would you kindly verify if EC50 of CC(C)[C@H](CO)Nc1nc(Nc2cccc(Cl)c2)c2ncn(C(C)C)c2n1 [Purvalanol A] is strictly less than 400 nM?
Resp: 0

Req: Would you kindly verify if EC50 of CCCCCCCCCCCCC/C=C/[C@@H](O)[C@@H](N)CO [Sphingosine] is strictly less than 400 nM?
Resp: 0

Req: Would you kindly verify if EC50 of CNc1ccc2oc(C[C@H]3O[C@@]4(CC[C@H]3C)O[C@H]([C@H](C)C(=O)c3ccc[nH]3)[C@H](C)C[C@H]4C)nc2c1C(=O)O [Calcimycin] is strictly less than 400 nM?
Resp: 1

Req: Would you kindly verify if EC50 of NC(=O)c1cc(N2CC2)c([N+](=O)[O-])cc1[N+](=O)[O-] [CB 1954, 5-(1-Aziridinyl)-2,4-dinitrobenzamide] is strictly less than 400 nM?
Resp: 0
